Several publications report pIC50 on Epidermal growth factor receptor (Homo sapiens, UniProt P00533); those values are gathered here.
pIC50: −log10 of the molar value.

Tested on Epidermal growth factor receptor (Homo sapiens, UniProt P00533), the item `CN(C)C/C=C/C(=O)N1CC[C@@H](Nc2n[nH]c3nccc(Oc4ccc(Oc5ccccc5)cc4C#N)c23)C1` showed pIC50 equal to 5.00 to 6.00

Response field pIC50 (Epidermal growth factor receptor (Homo sapiens, UniProt P00533)) for item `Cc1c2c(nn1C)OCCOCc1c(cnn1C)-c1ccc3[nH]nc(c3c1)/C=C/2` : < 6.00

Epidermal growth factor receptor (Homo sapiens, UniProt P00533) data for `COc1cc2ncnc(Nc3ccc(F)c(Cl)c3)c2cc1OCCBr` ; its pIC50: 7.74

pIC50 value, target or system Epidermal growth factor receptor (Homo sapiens, UniProt P00533), for `C=CC(=O)Nc1cccc(Nc2cc(Oc3cccc(C)c3)ncn2)n1` : ≥ 8.00

Epidermal growth factor receptor (Homo sapiens, UniProt P00533) assay, molecule `CCNc1nc(-c2cccc(OC)c2)c(-c2ccnc(Nc3ccc(OCCN4CCCC4)c(F)c3)n2)s1` , recorded pIC50 = > 7.00

Kindly note: Epidermal growth factor receptor (Homo sapiens, UniProt P00533), `CN1CCN(C2CCN(c3ccc(Nc4nc(NC5CCOCC5)c(-c5ccccc5C#N)nc4C(N)=O)cc3)CC2)CC1` , pIC50 value reported: < 6.52

Record `COCCN1CCC(Nc2ccc3c(c2)/C(=C(\c2cccc(Cl)c2)c2nc4ccccc4[nH]2)C(=O)N3)CC1` ; system Epidermal growth factor receptor (Homo sapiens, UniProt P00533); pIC50 = 5.30 to 6.30

More entries:
# value of pIC50, Epidermal growth factor receptor (Homo sapiens, UniProt P00533), item `C=CC(=O)N1CCc2[nH]c3ncnc(Nc4ccc(Oc5ccc(C)nc5)c(C)c4)c3c2C1` = < 5.00

* * *

From various publications: IC50 for Epidermal growth factor receptor (Homo sapiens).

Below, each entry is followed by its recorded IC50 result.
Measured on Epidermal growth factor receptor (Homo sapiens), `CCNc1nc(-c2cc(C)cc(OC)c2)c(-c2ccnc(Nc3ccc(N4CCN(CCS(C)(=O)=O)CC4)c(F)c3)n2)s1` has a documented IC50 of > 1000 nM

Epidermal growth factor receptor (Homo sapiens) assay, compound `CN(C)c1nc(-c2ccc(F)c(NS(=O)(=O)c3c(F)cccc3F)c2)c(-c2ccnc(Nc3ccc(N4CCN(S(C)(=O)=O)CC4)nc3)n2)s1` , recorded IC50 = 100 to 1000 nM

Note to self: IC50 of `COc1ccc(NC(=O)/C=C/CN2CCCCC2)cc1Nc1ncc(Cl)c(Nc2ccc3ccccc3c2)n1` with Epidermal growth factor receptor (Homo sapiens) was 318 nM

Epidermal growth factor receptor (Homo sapiens) data for `C=CC(=O)Nc1cccc(Nc2nc(Nc3ccc4c(c3)OC[C@H]3CN(C)CCN43)ncc2C(F)(F)F)c1` ; its IC50: < 100 nM

# `C=CC(=O)N1CCOc2ccc(-c3c(-c4ccc(CN(C)C)cc4)[nH]c4nccc(Cl)c34)cc21` with Epidermal growth factor receptor (Homo sapiens): IC50 is ≤ 100 nM

Summary line: `C=CC(=O)N1CCC[C@@H](Nc2n[nH]c3nccc(Oc4ccc(C(=O)Nc5nc(C)cs5)cc4)c23)C1` , Epidermal growth factor receptor (Homo sapiens), reported IC50 = 1000 to 10000 nM

# lookup: `Cc1ccc(Oc2ccc(Nc3ncnc4sc5c(c34)CCN(C(=O)/C=C/CN3CCC[C@@H](CO)C3)C5)cc2C)cn1` on Epidermal growth factor receptor (Homo sapiens), IC50 = > 10000 nM

Assay Epidermal growth factor receptor (Homo sapiens), sample `O=C(/C=C/CN1CCCC1)N1CCOc2c1ccc1ncnc(Nc3ccc(OCc4ccccn4)c(Cl)c3)c21` , IC50 read: ≤ 50 nM

Continue with the compound presented below.
The compound `CCc1cc(Nc2ncc(Br)c(Nc3ccc(-c4cnccn4)cc3P(C)(C)=O)n2)c(OC)cc1N1CCC(N2CCN(C)CC2)CC1` on Epidermal growth factor receptor (Homo sapiens): IC50 was 12.6 nM

* * *

Below, IC50 values reported for Epidermal growth factor receptor (Homo sapiens) across several publications.
OBSERVATION TYPE: IC50 (nM)

[A] CN1CCN(C2CCN(c3ccc(Nc4ncc(Br)c(Nc5cccc6c5N(S(C)(=O)=O)CC6)n4)c4c3CCO4)CC2)CC1
[B] CN1CCN(Cc2ccc3[nH]/c(=N\C(=O)c4ccnc(C#Cc5ccc(F)c(O)c5C=O)c4)n(CC(C)(C)O)c3c2)CC1
[C] Cc1nn(C2CCN(C)C2)c2c1/C=C/c1n[nH]c3ccc(cc13)-c1cnn(C)c1CN(C)CCO2 (stereo not shown)
stdin: Rank the listed compounds according to IC50, from the largest value downward. Sort the labels as requested; that list is your answer.
stdout: C, A, B

* * *

For reference, the following pIC50 results for Epidermal growth factor receptor (Homo sapiens) were taken from various sources.
pIC50: −log10 of the molar value.

A selection of reference data follows.
For the molecule `CN1CCN(Cc2ccc3[nH]/c(=N\C(=O)c4ccnc(C#Cc5cc(F)cc(O)c5C=O)c4)n(CC(C)(C)O)c3c2)CC1` , the measured pIC50 on Epidermal growth factor receptor (Homo sapiens) was 7.31

The value of pIC50 recorded for `C=CC(=O)Nc1cc(-c2c(-c3cnc(N4CCN(C)CC4)s3)[nH]c3ncc(C(=O)OC(C)C)cc23)ccc1C` when tested on Epidermal growth factor receptor (Homo sapiens) reads ≥ 7.00

Next:
Entry `C=CC(=O)N1CC[C@H](Nc2n[nH]c3nccc(Oc4cccc(C(=O)Nc5ccc(C(C)C)c(C)c5)c4)c23)C1` ; assay system Epidermal growth factor receptor (Homo sapiens); pIC50 recorded at 5.00 to 6.00

Summary: `Cc1ccc(-c2nn([C@@H]3CCN(C(=O)/C=C/CN(C)C4CCC4)C3)c3ncnc(N)c23)cc1` , Epidermal growth factor receptor (Homo sapiens), pIC50 = < 6.00

Assay Epidermal growth factor receptor (Homo sapiens), sample `CCC(=O)Nc1cccc(N2C(=O)N(C)Cc3cnc(Nc4ccc(N5CCN(C)CC5)cc4OC)nc32)c1` , pIC50 read: 5.00 to 6.00

Summary: `Cc1cc(Nc2ncnc3cnc(N4CCC(S(C)(=O)=O)CC4)nc23)ccc1Oc1ccc2c(c1)ncn2C` , Epidermal growth factor receptor (Homo sapiens), pIC50 = ≤ 5.00

Bench note, Epidermal growth factor receptor (Homo sapiens): entry `CC#CC(=O)N1CCC[C@@H](n2nc(-c3ccc(C(=O)Nc4cc(C(F)(F)F)ccn4)cc3)c3c(N)ncnc32)C1` , its pIC50 = 6.00 to 7.00

Observed pIC50, Epidermal growth factor receptor (Homo sapiens), `C=CC(=O)Nc1cc(Nc2ncc3cccc(-c4cccc(Cl)c4)c3n2)ccc1N(C)CCN(C)C` : < 7.00

Epidermal growth factor receptor (Homo sapiens) data for `CCNC(=O)N1CCC[C@@H](Nc2n[nH]c3nccc(Oc4ccc(C(=O)Nc5nc6ccccc6s5)cc4)c23)C1` ; its pIC50: < 5.00

Reported Epidermal growth factor receptor (Homo sapiens) pIC50 for item `CN(C)C/C=C/C(=O)N1CCOc2c1ccc1ncnc(Nc3ccc(Oc4ccc(F)cc4)cc3)c21` was ≥ 7.30

Measured pIC50 (Epidermal growth factor receptor (Homo sapiens)), entry `CNC(=O)/C(C#N)=C\c1cccc(Nc2n[nH]c3nccc(Oc4ccc(Oc5ccccc5)cc4)c23)c1` : > 7.00

GET /values?item= `Cc1ccc(NC(=O)/C=C/CN(C)C)cc1Nc1ncc(Cl)c(Nc2ccc3ccccc3c2)n1` &system= Epidermal growth factor receptor (Homo sapiens) returns pIC50: 5.65

Param item: `O=C(Nc1ccc(F)cc1)Nc1ncnc2nn3ccccc3c12` ; param system: Epidermal growth factor receptor (Homo sapiens); output pIC50: < 5.00

Test item Cc1ccc(Oc2ccc(Nc3ncnc4sc5c(c34)CCN(C(=O)/C=C/CN3CCN4C(=O)CCC4C3)C5)cc2C)cn1 (stereo not drawn) ; Epidermal growth factor receptor (Homo sapiens); reported pIC50 was < 5.00

Per the reported Epidermal growth factor receptor (Homo sapiens) data, `COc1cc(N2CCN(CCS(C)(=O)=O)CC2)c(C)cc1Nc1nccc(-c2oc(N3CCCC3)nc2-c2cccc(NS(=O)(=O)c3c(F)cccc3F)c2)n1` has pIC50 of 6.00 to 7.00

* * *

Note to self: these molecules have pIC50 reported for Epidermal growth factor receptor (Homo sapiens, UniProt P00533) in various publications.
pIC50: −log10 of the molar value.

# pIC50 measured on Epidermal growth factor receptor (Homo sapiens, UniProt P00533) for item `Cc1ccc(Oc2ccc(Nc3ncnc4sc5c(c34)CCN(C(=O)/C=C/CN3CC(CO)(CO)C3)C5)cc2C)cn1` = 5.00 to 6.00

The molecule `C=CC(=O)Nc1cc(-c2c(-c3ccc(NS(C)(=O)=O)cc3)[nH]c3nccc(Cl)c23)ccc1C` on Epidermal growth factor receptor (Homo sapiens, UniProt P00533): pIC50 was ≥ 7.00

The value of pIC50 recorded for `O=C(/C=C/CN1CCCC1)Nc1cccc(Nc2cc(Nc3ccc(F)c(Cl)c3)ncn2)c1` when tested on Epidermal growth factor receptor (Homo sapiens, UniProt P00533) reads ≥ 8.00

pIC50 for Epidermal growth factor receptor (Homo sapiens, UniProt P00533) with input CC(Cl)C(=O)Nc1cccc(Nc2cc(Nc3ccc(F)c(Cl)c3)ncn2)c1 (centres unmarked) equals ≥ 8.00

Measured pIC50 (Epidermal growth factor receptor (Homo sapiens, UniProt P00533)), entry `CCc1cc(Nc2ncc(Br)c(Nc3ccc(-n4cc(OC)cn4)cc3P(C)(C)=O)n2)c(OC)cc1N1CCC(N2CCCCC2)CC1` : 7.66

More entries:
Record COc1ccccc1C(=O)NCc1ccc(-c2nn(C3CCC4(C3)OCCO4)c3ncnc(N)c23)cc1 (centres unmarked) has Epidermal growth factor receptor (Homo sapiens, UniProt P00533) pIC50 equal to 6.00 to 7.00

The reported Epidermal growth factor receptor (Homo sapiens, UniProt P00533) pIC50 of `Oc1ccc(/C=C/c2cc(-c3ccc4ccccc4c3)[nH]n2)cc1` is < 5.30

The molecule `C=CC(=O)Nc1cccc(Nc2nc(Nc3ccc(N4CCN(C(=O)OC)CC4)cc3OC)ncc2C(F)(F)F)c1` on Epidermal growth factor receptor (Homo sapiens, UniProt P00533): pIC50 was 7.52 to 8.00
